Biological target: T1, human GIP receptor (human, UniProt P48546 22-466)
T1 construct: whole, on cells; also called hGIPR; human glucose-dependent insulinotropic polypeptide receptor
T1 sequence (looked up): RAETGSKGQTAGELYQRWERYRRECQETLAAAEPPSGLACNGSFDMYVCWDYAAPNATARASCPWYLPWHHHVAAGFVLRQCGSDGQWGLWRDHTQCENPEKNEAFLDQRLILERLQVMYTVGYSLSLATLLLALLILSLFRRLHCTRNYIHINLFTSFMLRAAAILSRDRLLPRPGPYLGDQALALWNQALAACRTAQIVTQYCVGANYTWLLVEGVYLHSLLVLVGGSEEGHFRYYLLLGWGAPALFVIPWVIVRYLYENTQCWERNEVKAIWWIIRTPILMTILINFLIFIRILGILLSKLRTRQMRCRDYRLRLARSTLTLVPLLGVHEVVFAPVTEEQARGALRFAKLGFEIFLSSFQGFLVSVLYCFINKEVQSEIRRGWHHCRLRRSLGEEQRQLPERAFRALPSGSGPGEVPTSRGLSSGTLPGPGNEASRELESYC
Experiment: SPA competition vs [125I]-GIP, hGIPR membranes
Procedure: The binding buffer contains 25 mM HEPES, pH 7.4, 2.5 mM CaCl₂, 1 mM MgCl₂, 0.1% (w/v) bacitracin, 0.003% (w/v) TWEEN®-20, and Roche Complete™ Protease Inhibitors without EDTA. […] Plates are sealed and mixed on a plate shaker (setting 6) for 1 minute and read with a PerkinElmer Trilux MicroBeta® scintillation counter after 2.5 to 12 hours of incubation/settling time at room temperature. […]
*1 amine or outer side, *2 acyl side, *3 side chain or, on linkers, in order; H or OH if unused. Where no end group is shown, it is not given here. Side-chain parts run from the residue outwards. [ ]: non-standard residue; d: D form. The star is where a group is joined. αMePhe(2-F) = C[C@](N)(Cc1ccccc1F)C(=O)O; γGlu = O=C(O)[C@H](CCC(=O)[*:2])N[*:1]; C14 diacid = O=C(O)CCCCCCCCCCCCC(=O)*; αMeY = C[C@](N)(Cc1ccc(O)cc1)C(=O)O; αMeL = CC(C)C[C@](C)(N)C(=O)O; Nle = CCCC[C@H](N)C(=O)O; Orn = NCCC[C@H](N)C(=O)O; AEEA = NCCOCCOCC(=O)O; Aib = CC(C)(N)C(=O)O
Assay readout: pKi
Remember, pKi is on a log scale: it is -log10 of the molar concentration.

// known answers, use as guide
>>> recorded_measurement("YXEGTXTSDYXIXLDXIAQXXFIKXLIKGGPSSGAPPPS (Aib2, αMeF(2F)6, Aib11, αMeL13, Orn16, Aib20, Orn21, K24(Z1), αMeY25, K28(Z1), C-term NH2; Z1=AEEA3-(γ-Glu)-CO-(CH2)12-CO2H)")
10.39
>>> recorded_measurement("YXEGTXTSDXXIXLDXIAQXEFIKXLIKGGPSSGAPPPS (Aib2, αMeF(2F)6, 4Pal10, Aib11, αMeL13, Orn16, Aib20, K24(Z1), αMeY25, K28(Z1), C-term NH2; Z1=AEEA2-(γ-Glu)-CO-(CH2)12-CO2H)")
9.94
>>> recorded_measurement("YXEGTXTSDXXIXLDXKAQXKFIXXLIEGGPSSGAPPPS (Aib2, αMeF(2F)6, 4Pal10, Aib11, αMeL13, Orn16, K17(Z1), Aib20, K21(Z1), D-Glu24, αMeY25, C-term NH2; Z1=AEEA3-(γ-Glu)-CO-(CH2)10-CH3)")
10.66
>>> recorded_measurement("Y[Aib]EGT[αMePhe(2-F)]TSD[Nle]SI[αMeL]LD[Orn]QAQ[Aib][Orn]FIK([AEEA-AEEA-γGlu-C14 diacid])[αMeY]LIK([AEEA-AEEA-γGlu-C14 diacid])GGPSSGAPPPS-NH2")
10.54

Consider the binder YXEGTXTSDXSIXLDXKAQXEFIKXLIEGGPSSGAPPPS (Aib2, αMeF(2F)6, 4Pal10, αMeL13, Orn16, K17(Z1), Aib20, K24(Z1), αMeY25, C-term NH2; Z1=AEEA2-(γ-Glu)-(10-(4-carboxyphenoxy)decanoyl)) and give its measured pKi.
10.50

Numbers sourced from patent US20230265151A1.
